- system.under.test: hMAO-A (Homo sapiens)
- Sequence (P21397 1-527): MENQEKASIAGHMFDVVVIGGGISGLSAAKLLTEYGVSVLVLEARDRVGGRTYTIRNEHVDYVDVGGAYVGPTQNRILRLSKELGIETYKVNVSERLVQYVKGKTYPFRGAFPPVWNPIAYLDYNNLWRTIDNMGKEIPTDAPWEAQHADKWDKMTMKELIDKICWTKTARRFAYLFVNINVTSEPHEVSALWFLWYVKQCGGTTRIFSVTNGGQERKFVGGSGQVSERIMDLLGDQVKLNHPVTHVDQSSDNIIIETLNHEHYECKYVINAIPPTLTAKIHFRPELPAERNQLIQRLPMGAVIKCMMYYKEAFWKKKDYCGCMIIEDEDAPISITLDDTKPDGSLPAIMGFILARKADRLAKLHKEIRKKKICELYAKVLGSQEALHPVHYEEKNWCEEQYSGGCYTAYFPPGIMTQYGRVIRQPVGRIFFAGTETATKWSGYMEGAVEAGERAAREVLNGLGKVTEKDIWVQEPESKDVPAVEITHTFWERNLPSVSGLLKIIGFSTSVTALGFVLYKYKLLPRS
IC50 by entry:

- compound: "COc1cc(O)c2c(=O)c(-c3ccc(O)cc3O)coc2c1 [Compound 7, cajanin]"
  system.under.test: "hMAO-A (Homo sapiens)"
  unit.of.measurement: "µM"
  IC50: 13.1
- compound: "COc1cc(O)c2c(=O)c(-c3ccc(OC)c(O)c3)coc2c1 [Compound 10, 7,4′-dimethyl-3′-hydroxygenistein]"
  system.under.test: "hMAO-A (Homo sapiens)"
  unit.of.measurement: "µM"
  IC50: 8.05
- compound: "COc1ccc2c(c1)OC[C@H]1c3cc4c(cc3O[C@@H]21)OCO4 [Compound 12, 3-methoxy-8,9-methylenedioxypterocarpan]"
  system.under.test: "hMAO-A (Homo sapiens)"
  unit.of.measurement: "µM"
  IC50: 12.5
- compound: "COc1ccc(-c2coc3cc(OC)ccc3c2=O)cc1 [Compound 11, 7,4′-dimethoxyisoflavone]"
  system.under.test: "hMAO-A (Homo sapiens)"
  unit.of.measurement: "µM"
  IC50: 9.8
